List of IC50 values.
# Assayed System: IDH1 R132C (Homo sapiens, UniProt O75874, R132C)
# Sequence (O75874 whole entry R132C): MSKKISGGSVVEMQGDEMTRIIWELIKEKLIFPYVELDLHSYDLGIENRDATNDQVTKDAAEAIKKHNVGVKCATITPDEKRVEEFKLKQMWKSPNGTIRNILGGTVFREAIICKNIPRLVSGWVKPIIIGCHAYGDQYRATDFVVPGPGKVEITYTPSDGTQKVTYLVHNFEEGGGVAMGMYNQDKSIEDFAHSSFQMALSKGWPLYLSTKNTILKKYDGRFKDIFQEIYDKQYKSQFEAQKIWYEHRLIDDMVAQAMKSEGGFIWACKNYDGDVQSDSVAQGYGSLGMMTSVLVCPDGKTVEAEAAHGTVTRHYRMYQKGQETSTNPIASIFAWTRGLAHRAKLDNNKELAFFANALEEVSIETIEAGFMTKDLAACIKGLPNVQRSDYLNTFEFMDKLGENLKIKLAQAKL
# Test Details: IDH1 R132C enzymatic assay (NADPH depletion coupled to diaphorase/resazurin)
# Type: biochemical
# Particulars: IDH1 R132C enzymatic inhibition, IC50 class
# Experimental: Assays were conducted in a 1536-well black solid-bottom plate with a final assay volume of 9 μL. For IDH1 R132C, 3 μL of enzyme (0.00032 mg/mL IDH1 […], 10% glycerol, 50 mM potassium phosphate pH 6.5, 5 mM MgCl2, 0.03% BSA) were added to the plate, followed by the addition of 23 nL of test compound in DMSO. […]
Measured Property: IC50

Molecule	Experimental Result
CCc1cccc(CC)c1-n1c(C)c(C(=O)N2CCNCC2)cc(-c2nc(-c3ccc(Cl)cc3)cs2)c1=O	0.3 to 1 µM
COc1cccc(OC)c1-n1c2c(cc(-c3nc(-c4ccc(Cl)cc4)cs3)c1=O)C(=O)CC(C)(C)C2	1 to 5 µM
CCc1ccc(Cl)c(CC)c1-n1c(C=C(C)C)c(C(=O)N2CCNCC2)cc(-c2nc(-c3ccc(Cl)cc3)cs2)c1=O	< 0.3 µM
CCc1cccc(CC)c1-n1c(C(C)C)c(C(=O)N2CCN[C@@H](C)C2)cc(-c2nc(-c3ccc(Cl)cc3)cs2)c1=O	0.3 to 1 µM
COc1ncc(F)cc1-n1c(C=C(C)C)c(C(=O)N2CCNCC2)cc(-c2nc(-c3ccc(Cl)cc3)cs2)c1=O	< 0.3 µM
CC1(C)CC(=O)c2cc(-c3nc(-c4ccc(Cl)cc4)cs3)c(=O)n(C3CCCCC3)c2C1	5 to 20 µM
COc1ncc(C2=CCNCC2)cc1-n1c2c(cc(-c3nc(-c4ccc(Cl)cc4)cs3)c1=O)C(=O)CC(C)(C)C2	5 to 20 µM
CCc1cccc(CC)c1-n1c(CC(C)C)c(C(=O)N2CCNCC2)cc(-c2nc(-c3ccc(Cl)cc3F)c(C)s2)c1=O	0.3 to 1 µM
CCc1cccc(CC)c1-n1c(-c2ccccc2)c(C#N)cc(-c2nc(-c3ccc(Cl)cc3)cs2)c1=O	1 to 5 µM
CCc1cccc(CC)c1-n1c(CC(C)C)c(C(=O)N2CCNCC2)cc(-c2nc(-c3ccc(OCc4ccccc4)cc3)c(C)s2)c1=O	5 to 20 µM
Cc1ccccc1-n1c2c(cc(-c3nc(-c4ccc(Cl)cc4)cs3)c1=O)C(=O)CC(C)(C)C2	0.3 to 1 µM
CN1CCN(c2ccc(C(F)(F)F)c(-n3c4c(cc(-c5nc(-c6ccc(Cl)cc6)cs5)c3=O)C(=O)CC(C)(C)C4)c2)CC1	1 to 5 µM
CCOc1ccc(F)cc1-n1c(C=C(C)C)c(C(=O)N2CCNCC2)cc(-c2nc(-c3ccc(C(F)F)cc3)cs2)c1=O	< 0.3 µM
COc1ccc(OC)c(-n2c3c(cc(-c4nc(-c5ccc(Cl)cc5)cs4)c2=O)C(=O)NCC3)c1	1 to 5 µM
COc1ccc(OC)c(-n2c3c(cc(-c4nc(-c5ccc(Cl)cc5)cs4)c2=O)C(=O)CN(C)C3)c1	1 to 5 µM
CC(C)=Cc1c(C(=O)N2CCNCC2)cc(-c2nc(-c3ccc(Cl)cc3)cs2)c(=O)n1-c1ccccc1C(C)(C)C	< 0.3 µM
CCc1cccc(CC)c1-n1c(C)c(C(=O)N2CCOCC2)cc(-c2nc(-c3ccc(Cl)cc3)cs2)c1=O	1 to 5 µM
CCc1cccc(CC)c1-n1c(CC(C)C)c(C(=O)N[C@@H]2CCC[C@@H]2O)cc(-c2nc(-c3ccc(Cl)cc3)cs2)c1=O	0.3 to 1 µM
CCc1cccc(CC)c1-n1c2c(cc(-c3nc(-c4ccc(Cl)cc4)cs3)c1=O)C(=O)OC2	5 to 20 µM
CCc1cccc(CC)c1N1C(=O)C(c2nc(-c3ccc(Cl)cc3)cs2)CC(CN2CCNCC2)=C1CC(C)C (stereo not drawn)	1 to 5 µM
CCc1cccc(CC)c1-n1c(C=C(C)C)c(C(=O)N2CCNC(=O)C2CC(=O)O)cc(-c2nc(-c3ccc(Cl)cc3)cs2)c1=O (stereo not drawn)	< 0.3 µM
COc1ccc(OC)c(-n2c3c(cc(-c4nc(-c5ccc(Cl)cc5)cs4)c2=O)CCC(C)(C)C3)c1	1 to 5 µM
CCc1cccc(CC)c1-n1c(CC(C)C)c(C(=O)NC(C)CO)cc(-c2nc(-c3ccc(Cl)cc3)cs2)c1=O (stereo not drawn)	< 0.3 µM
CCc1cccc(CC)c1-n1c(C=C(C)C)c(C(=O)N2C[C@H]3CC[C@@H](C2)N3)cc(-c2nc(-c3ccc(C(F)(F)F)cc3)cs2)c1=O	< 0.3 µM
CCc1cccc(CC)c1-n1c(CC(C)C)c(C(=O)N2CCNCC2)cc(-c2nc(-c3ccc(Cl)cc3)c(C)s2)c1=O	< 0.3 µM
Cc1ccc(-c2csc(-c3cc4c(n(-c5ccccc5C(F)(F)F)c3=O)CC(C)(C)CC4=O)n2)cc1	0.3 to 1 µM
CCc1cccc(CC)c1-n1c(CC(C)C)c(C(=O)N2CCNC(C)C2C)cc(-c2nc(-c3ccc(Cl)cc3)cs2)c1=O (stereo not drawn)	< 0.3 µM
